Numbers sourced from patent EP4775575A1.

assay: Preclinical pharmacokinetic study in rats; format: in vivo, Sprague-Dawley (SD) rats; conditions: Sprague-Dawley, rat; male SD rats, oral gavage (p.o.) 10 mg/kg, plasma
Rule: Tmax of 0.7 h or more gives true; anything lower gives false.

[[record]]
smiles_text = "C[C@H]1CCN(CC#N)c2nc3c(F)cc(-c4nc(N[C@@H]5CCOC[C@H]5O)ncc4Cl)cc3n21"
classification = "false"

[[record]]
smiles_text = "CC(C)N1CCCn2c1nc1c(F)cc(-c3nc(N[C@@H]4CCOC[C@H]4O)ncc3Cl)cc12"
classification = "false"

[[record]]
smiles_text = "C[C@H]1CCN(C)c2nc3c(F)cc(-c4cc(N[C@@H]5CCOC[C@H]5O)ncc4Cl)cc3n21"
classification = "true"


### Prompt State whether the measured Tmax reaches 0.7 h, counting equality as reaching it, for "CC(C)n1c(N2CCOC2=O)nc2c(F)cc(-c3nc(N[C@@H]4CCOC[C@H]4O)ncc3Cl)cc21"
### Response true

### Prompt State whether the measured Tmax reaches 0.7 h, counting equality as reaching it, for "C[C@H]1CCN(c2ccccc2)c2nc3c(F)cc(-c4nc(N[C@@H]5CCOC[C@H]5O)ncc4Cl)cc3n21"
### Response true

### Prompt State whether the measured Tmax reaches 0.7 h, counting equality as reaching it, for "C[C@H]1CCN(CC(F)(F)F)c2nc3c(F)cc(-c4nc(N[C@@H]5CCOC[C@H]5O)ncc4Cl)cc3n21"
### Response false

### Prompt State whether the measured Tmax reaches 0.7 h, counting equality as reaching it, for "CC(C)n1c(N2CCOC2=O)nc2c(F)cc(-c3nc(N[C@@H]4CCOC[C@H]4O)ncc3C(F)(F)F)cc21"
### Response true

###

Listing of recorded IC50 by entry.
target: CDK6/CyclinD3 (Homo sapiens); assay: Kinase activity assay (MSA, EZ Reader) against CDK6; conditions: CDK6/CyclinD3 5.00 nM, ATP 350 µM, FL-Peptide34, 10mM MgCl2
Sequence (Q00534 whole entry): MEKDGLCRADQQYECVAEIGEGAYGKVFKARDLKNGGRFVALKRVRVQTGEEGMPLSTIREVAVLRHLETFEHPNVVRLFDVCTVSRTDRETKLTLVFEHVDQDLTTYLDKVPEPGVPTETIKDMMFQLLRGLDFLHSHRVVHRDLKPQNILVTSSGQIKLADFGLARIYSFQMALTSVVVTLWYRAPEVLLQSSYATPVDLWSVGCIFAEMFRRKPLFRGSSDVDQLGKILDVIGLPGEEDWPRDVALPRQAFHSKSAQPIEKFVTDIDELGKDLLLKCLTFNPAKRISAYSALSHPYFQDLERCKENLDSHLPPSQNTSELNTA
Sequence (P30281 whole entry partner): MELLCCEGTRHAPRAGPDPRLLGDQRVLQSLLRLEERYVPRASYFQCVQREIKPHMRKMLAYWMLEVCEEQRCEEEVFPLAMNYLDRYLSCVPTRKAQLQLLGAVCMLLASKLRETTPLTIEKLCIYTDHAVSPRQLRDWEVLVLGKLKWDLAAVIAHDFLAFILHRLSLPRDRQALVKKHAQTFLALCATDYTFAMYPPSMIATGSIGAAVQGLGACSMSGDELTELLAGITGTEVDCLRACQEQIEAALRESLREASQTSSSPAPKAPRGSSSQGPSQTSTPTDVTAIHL

[[record]]
smiles_text = "CC(C)n1c(N2CCCC2)nc2c(F)cc(-c3nc(N[C@@H]4CCOC[C@H]4O)ncc3Cl)cc21"
assay_result = "202 nM"


Lab book: IC50 of "CNS(=O)(=O)c1ccc(Nc2ncc(Cl)c(-c3cc(F)c4nc(N(C)C)n(C(C)C)c4c3)n2)cc1" noted as 141 nM

Lab book: IC50 of "CN1CCCn2c1nc1c(F)cc(-c3nc(Nc4ccncc4)ncc3Cl)cc12" noted as 95.2 nM

Lab book: IC50 of "CC(C)n1c(N2CCOCC2)nc2c(F)cc(-c3nc(N[C@@H]4CCOC[C@H]4O)ncc3Cl)cc21" noted as 151 nM

Lab book: IC50 of "CC(C)n1c(N2CCOC2=O)nc2c(F)cc(-c3nc(NC4CCN(S(C)(=O)=O)CC4)ncc3F)cc21" noted as 154 nM

###

molecular target: CDK4/CycD1 (Homo sapiens, UniProt P11802); assay: Kinase activity assay (MSA, EZ Reader) against CDK4
Sequence (P11802 whole entry): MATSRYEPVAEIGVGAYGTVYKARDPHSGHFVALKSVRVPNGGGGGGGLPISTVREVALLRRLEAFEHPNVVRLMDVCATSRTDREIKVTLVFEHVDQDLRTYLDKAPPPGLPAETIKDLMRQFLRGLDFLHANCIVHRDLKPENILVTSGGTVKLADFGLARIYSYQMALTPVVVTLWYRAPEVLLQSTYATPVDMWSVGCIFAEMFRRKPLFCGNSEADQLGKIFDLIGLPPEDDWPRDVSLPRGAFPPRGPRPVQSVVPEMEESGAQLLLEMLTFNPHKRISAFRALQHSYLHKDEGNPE
Listing of recorded log10 IC50 by entry.
Each number you see is log10 of IC50, and the unit inside the log is nM.

[[record]]
compound = "CC1(C)CSc2nc3c(F)cc(-c4nc(N[C@@H]5CCOC[C@H]5O)ncc4Cl)cc3n2C1"
property_name = "log10 IC50"
assay_result = 1.08

[[record]]
compound = "C[C@@H]1C[C@H](C)n2c(nc3c(F)cc(-c4nc(N[C@@H]5CCOC[C@H]5O)ncc4Cl)cc32)N1C"
property_name = "log10 IC50"
assay_result = 0.48

[[record]]
compound = "CC(C)n1c(N2CCCOC2=O)nc2c(F)cc(-c3nc(NC4CCN(S(C)(=O)=O)CC4)ncc3Cl)cc21"
property_name = "log10 IC50"
assay_result = 1.84

[[record]]
compound = "CNS(=O)(=O)c1ccc(Nc2ncc(Cl)c(-c3cc(F)c4nc5n(c4c3)C(C)CCN5C)n2)cc1 (stereo not shown)"
property_name = "log10 IC50"
assay_result = 1.03

[[record]]
compound = "C[C@H]1CCN(c2ccc(C#N)cc2)c2nc3c(F)cc(-c4nc(N[C@@H]5CCOC[C@H]5O)ncc4Cl)cc3n21"
property_name = "log10 IC50"
assay_result = 0.65


Lab book: log10 IC50 of "CC(C)n1c(N2CCOC2=O)nc2c(F)cc(-c3nc(Nc4ccc(S(=O)(=O)NCCN(C)C)cc4)ncc3Cl)cc21" noted as 1.27

Lab book: log10 IC50 of "CNS(=O)(=O)c1ccc(Nc2ncc(Cl)c(-c3cc(F)c4nc(N(C)C)n(C(C)C)c4c3)n2)cc1" noted as 1.65

Lab book: log10 IC50 of "CC(C)n1c(N(C)C)nc2c(F)cc(-c3nc(N[C@H]4CC[C@@H](NS(C)(=O)=O)CC4)ncc3Cl)cc21" noted as 1.43

Lab book: log10 IC50 of "CC(C)n1c(N2CCCC2=O)nc2c(F)cc(-c3nc(N[C@@H]4CCOC[C@H]4O)ncc3Cl)cc21" noted as 2.27

Lab book: log10 IC50 of "CC(C)n1c(N2CCOC2=O)nc2c(F)cc(-c3nc(NC4CCN(S(C)(=O)=O)CC4)ncc3Cl)cc21" noted as 1.27

Lab book: log10 IC50 of "CC(C)n1c(N2CC[C@@H](O)C2)nc2c(F)cc(-c3nc(N[C@@H]4CCOC[C@H]4O)ncc3Cl)cc21" noted as 0.47

Lab book: log10 IC50 of "CC(C)n1c(N2CCOC2=O)nc2c(F)cc(-c3nc(NC4CCN(S(=O)(=O)C(C)C)CC4)ncc3Cl)cc21" noted as 1.09
